Ref: patent US6569836B2

System: Candida albicans CCH 442
Assay: In vitro antibacterial activity, agar dilution MIC
Format: cell-based
Conditions: code TT, BHI agar, 35-37° C., 20-24 hours, unit assumed
Procedure: Each plate was inoculated with 1:100 (or 1:10 for slow-growing strains, such as Micrococcus and Streptococcus) dilutions of up to 32 different microorganisms, using a Steers replicator block. The inoculated plates were incubated at 35-37° C. for 20-24 hours. In addition, a control plate using BHI agar with no test compound was prepared and incubated at the beginning and end of each test. A plate containing erythromycin A was also prepared to provide test-to-test comparability. […]
endpoint.name: Antibacterial Activity (MIC's)

compound	target.under.test	Antibacterial Activity (MIC's)
CCC1OC(=O)CC(=O)C(C)C(OC2OC(C)CC(N(C)C)C2O)C(C)(OCC=Cc2cnc3ccccc3c2)CC(C)C(=O)C(C)C2NC(=O)OC12C (stereo not shown) [Example 2]	Candida albicans CCH 442	> 100 mg/L
CCC1OC(=O)C(CS(=O)(=O)O)C(=O)C(C)C(OC2OC(C)CC(N(C)C)C2O)C(C)(OCC=Cc2cnc3ccccc3c2)CC(C)C(=O)C(C)C2NC(=O)OC12C (stereo not shown) [Example 6]	Candida albicans CCH 442	> 100 mg/L
C=CCC1C(=O)OC(CC)C2(C)OC(=O)NC2C(C)C(=O)C(C)CC(C)(OCC=Cc2cnc3ccccc3c2)C(OC2OC(C)CC(N(C)C)C2O)C(C)C1=O (stereo not shown) [Example 5]	Candida albicans CCH 442	> 100 mg/L

Attention now turns to another entry.
Inquiry: # input compound: CC[C@H]1OC(=O)[C@H](C)[C@@H](O[C@H]2C[C@@](C)(OC)[C@@H](O)[C@H](C)O2)[C@H](C)[C@@H](O[C@@H]2O[C@H](C)C[C@H](N(C)C)[C@H]2O)[C@](C)(O)C[C@@H](C)C(=O)[C@H](C)[C@@H](O)[C@]1(C)O [Ery. A, Erythromycin A, reference compound] ; wanted: its Antibacterial Activity (MIC's)
Reply text: > 100 mg/L

* * *

test system: Streptococcus Pneumonia ATCC 6303; test: In vitro antibacterial activity, agar dilution MIC; format: cell-based; details: code XX, BHI agar, 35-37° C., 20-24 hours, unit assumed
endpoint.name: Antibacterial Activity (MIC's)
Include the unit right after the number.

compound	Antibacterial Activity (MIC's)
CCC1OC(=O)CC(=O)C(C)C(OC2OC(C)CC(N(C)C)C2O)C(C)(OCC=Cc2cnc3ccccc3c2)CC(C)C(=O)C(C)C2NC(=O)OC12C (centres unmarked)	0.03 µg/mL
CCC1OC(=O)C(CC(C(=O)OC)C(=O)OC)C(=O)C(C)C(OC2OC(C)CC(N(C)C)C2O)C(C)(OCC=Cc2cnc3ccccc3c2)CC(C)C(=O)C(C)C2NC(=O)OC12C (centres unmarked)	0.03 µg/mL
C=CCC1C(=O)OC(CC)C2(C)OC(=O)NC2C(C)C(=O)C(C)CC(C)(OCC=Cc2cnc3ccccc3c2)C(OC2OC(C)CC(N(C)C)C2O)C(C)C1=O (centres unmarked)	32 µg/mL
CC[C@H]1OC(=O)[C@H](C)[C@@H](O[C@H]2C[C@@](C)(OC)[C@@H](O)[C@H](C)O2)[C@H](C)[C@@H](O[C@@H]2O[C@H](C)C[C@H](N(C)C)[C@H]2O)[C@](C)(O)C[C@@H](C)C(=O)[C@H](C)[C@@H](O)[C@]1(C)O [Ery. A, Erythromycin A, reference compound]	0.06 µg/mL

Inquiry: # input compound: CCC1OC(=O)C(CS(=O)(=O)O)C(=O)C(C)C(OC2OC(C)CC(N(C)C)C2O)C(C)(OCC=Cc2cnc3ccccc3c2)CC(C)C(=O)C(C)C2NC(=O)OC12C (centres unmarked) ; wanted: its Antibacterial Activity (MIC's)
Reply text: 0.25 µg/mL

* * *

tested on: Streptococcus pyogenes 930; assay: In vitro antibacterial activity, agar dilution MIC; assay type: cell-based; settings: code MM, BHI agar, 35-37° C., 20-24 hours, unit assumed
endpoint.name: Antibacterial Activity (MIC's) (µg/mL)
Value expressed in µg/mL; do not type the unit.

compound	target.under.test	unit.spec	Antibacterial Activity (MIC's)
CCC1OC(=O)C(CS(=O)(=O)O)C(=O)C(C)C(OC2OC(C)CC(N(C)C)C2O)C(C)(OCC=Cc2cnc3ccccc3c2)CC(C)C(=O)C(C)C2NC(=O)OC12C (stereo not shown)	Streptococcus pyogenes 930	µg/mL	25

Attention now turns to another entry.
Inquiry: Could you share what Antibacterial Activity (MIC's) was measured for CCC1OC(=O)CC(=O)C(C)C(OC2OC(C)CC(N(C)C)C2O)C(C)(OCC=Cc2cnc3ccccc3c2)CC(C)C(=O)C(C)C2NC(=O)OC12C (stereo not shown) , tested on Streptococcus pyogenes 930?
Reply text: 50
